Read-out: xenobiotic metabolism (CYP1A2), CYP1A2 (gene 1544)
Experiment: CLD_CYP1A2_6hr: CellzDirect (CLD) Gene Expression Assay for xenobiotic metabolism (CYP1A2) at 6 hours (AID 2283663);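 as to AC50: potency is for induction meaning a rise in mRNA above DMSO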
Procedure: CLD_6hr is a cell-based, multiplexed-readout assay that uses hepatocyte, a human liver primary cell, with measurements taken at 6 hours after chemical dosing in a 96-well plate.CLD_CYP1A2_6hr is one of 16 assay component(s) measured or calculated from the CLD_6hr assay. […] Furthermore, this assay endpoint can be referred to as a primary readout. […]
Inconclusive results are not listed. Active and inactive are the calls of the source. The calls were made as follows: active = hit-call score of the fitted dose curve at least 0.9, where 1 is the maximum; inconclusive = response in the unintended direction; inactive = score below 0.9.
Recorded Endpoint: AC50

Example entries begin here.
COP(=S)(OC)Oc1nc(Cl)c(Cl)cc1Cl	6.12 µM (active)
C=CC1(C)OC(=O)N(c2cc(Cl)cc(Cl)c2)C1=O (stereo not given)	0.828 µM (active)
Cc1c(F)c(F)c(COC(=O)C2C(/C=C(\Cl)C(F)(F)F)C2(C)C)c(F)c1F (stereo not given)	inactive
CCNc1nc(Cl)nc(NC(C)C)n1	1.62 µM (active)

Next, consider the following compound.
Supply measured AC50 of CC1COC(Cn2cncn2)(c2ccc(Oc3ccc(Cl)cc3)cc2Cl)O1 (stereo not given) in your reply.
inactive
